The reported measurements were obtained from patent US10017501B2.

test system: MM.1S cells; assay: MM.1S viability assay (CellTiter Glo); assay type: cell-based; details: Homo sapiens, MM1.S, 72 hr, read-out: MM.1S Cell viability (EC50)
experimental endpoint: EC50 (nM)

Completed entries (count: 5):
molecule | test value
Cc1noc(C)c1-c1cc(C(O)(c2ccccn2)c2ccccn2)c2nc(C3CC3)[nH]c2c1 | 55.5
Cc1noc(C)c1-c1cc(C(O)(c2ccccn2)c2ccccn2)c2nc(C3CC3)[nH]c2c1F | 84
Cc1noc(C)c1-c1cc(C(O)(c2ccccn2)c2ncccn2)c2nc(C3CC3)[nH]c2c1 (single isomer, unassigned) | 47.5
Cc1noc(C)c1-c1cc(C(O)(c2ccccc2)c2ccccn2)c2nc(C3CC3)[nH]c2c1 (stereo not drawn) | 169
Cc1noc(C)c1-c1cc(C(O)(c2ncccn2)c2ccc(F)cc2F)c2nc(C3CC3)[nH]c2c1 (stereo not drawn) | 28.4

I = Cc1noc(C)c1-c1cc(C(O)(c2nccs2)c2nccs2)c2nc(C3CC3)[nH]c2c1
II = Cc1noc(C)c1-c1cc(C(O)(c2ccccc2)c2cccnc2)c2nc(C3CC3)[nH]c2c1 (stereo not drawn)
III = Cc1noc(C)c1-c1cc(C(O)(c2cccnn2)C2CCC(C)(C)O2)c2nc(C3CC3)[nH]c2c1 (single isomer, unassigned)
Rank descending by EC50. Answer format: the labels, in the requested order.
II, I, III
(II: 145 nM, I: 72.8 nM, III: 16.9 nM)
